Reference source for all entries: paper PMC9851200

System: endogenous TFE3
Experiment: TFE3 nuclear translocation, immunocytochemistry high-content imaging
Assay type: cell-based
Details: PKIS2 primary screening
# cutoff 10% applies to TFE3 %; >= gives met, < gives not met

These solved cases illustrate the format of a correct answer.
[
  {
    "compound": "Nc1nc(N)c2nc(-c3ccccc3)[nH]c2n1 [UNC10225149A]",
    "targetUnderTest": "endogenous TFE3",
    "className": "not met"
  },
  {
    "compound": "CN1CCC(n2cnc(-c3ccc(F)cc3)c2-c2ccnc(NC3CCNCC3)n2)CC1 [UNC10225443A]",
    "targetUnderTest": "endogenous TFE3",
    "className": "met"
  },
  {
    "compound": "Cc1ccn2nc(-c3ccc(F)cc3)c(-c3ccncc3)c2c1.Cl [UNC10224989A]",
    "targetUnderTest": "endogenous TFE3",
    "className": "not met"
  },
  {
    "compound": "C[C@@H](Oc1cc(-n2cnc3cc(-c4cnn(C)c4)ccc32)sc1C(N)=O)c1ccccc1Cl [UNC10225416A]",
    "targetUnderTest": "endogenous TFE3",
    "className": "not met"
  },
  {
    "compound": "Cl.Cl.NC[C@H](CC1CCCCC1)NC(=O)c1ccc(-c2ccnc3[nH]ccc23)s1 [UNC10225041A]",
    "targetUnderTest": "endogenous TFE3",
    "className": "met"
  }
]

Could you now look at the following compound, please?
Given Cn1cncc1-c1ccc2ncnc(Nc3ccc(OCc4ccccc4)cc3)c2c1 [UNC10225497A] , state whether its TFE3 % is at least 10%.
met
